Molecular target: CSNK1E (human)
Experiment: radiometric filter-binding kinase assay, Kinase HotSpot
Conditions: compound 0.5 µM; ATP 10 µM

smilesText	residual activity, %
NC(=O)c1cccc(-c2cc(Nc3ccc(OC(F)(F)F)cc3)ncn2)c1	103
Cc1cncc2cccc(S(=O)(=O)N3CCCN(C(=O)CN)C[C@H]3C)c12	100
COc1cc2ncnc(Nc3ccc(OCc4ccccc4)cc3)c2cc1OC	98.4
COc1cc2ncnc(Nc3ccc(Oc4ccccc4)cc3)c2cc1OC	100
O=C1NC(=O)c2c1c1c3ccccc3[nH]c1n1cncc21	18.9
CC(C)(C)c1cc(C=C(C#N)C#N)cc(Br)c1O	92.1
CN(C)c1ccc(/C=C2\C(=O)Nc3ccccc32)cc1	57.2
N#Cc1c[nH]c2c[nH]/c(=N\Cc3cccnc3)cc2/c1=N\c1ccc(F)c(Cl)c1	81.8
CN(C)S(=O)(=O)c1ccc2c(c1)/C(=C/c1cc3c([nH]1)CCCC3)C(=O)N2	104
COc1ccc(S(=O)(=O)N(CCO)c2ccccc2CN(C)C/C=C/c2ccc(Cl)cc2)cc1	105
